Reference for the values: patent US20130078237A1

Target: T1, human CD27L on the surface of cells (human, UniProt P32970 1-193)
T1 construct: native on Raji and 786-0 cells, recombinant on 293 cells; also called CD70; TNFSF7
T1 sequence: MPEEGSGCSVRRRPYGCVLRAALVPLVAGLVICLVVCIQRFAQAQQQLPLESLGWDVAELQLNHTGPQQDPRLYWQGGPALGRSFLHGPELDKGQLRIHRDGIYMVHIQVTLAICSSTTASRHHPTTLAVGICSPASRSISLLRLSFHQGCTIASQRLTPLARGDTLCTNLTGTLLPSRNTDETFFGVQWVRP
Experiment: binding to cells with native human CD27L (column 'Native cell Avidity EC50 nM'); cell line and method not stated for the figure
Record form. Attribute: EC50. Fill in for each entry.
Respond with the bare value in nM.

### Prompt For the binder Ab1 (antibody, human IgG1, kappa, V domains shown, Fully human IgG1 from XenoMouse hybridoma) VH: QMQLQESGPGLVKPSQTLSLTCTVSDGSIISGVYYWSWIRQHPGKGLEWIGYIYYSGSTSYNPSLKSRLTMSVDTSKNQFSLKLSSVTAADTAVYYCARSGYSYALFDYWGQGTLVTVSS VL: DIQMTQSPSSLSASLGDRVTITCRASQSVDRYFNWYQQKPGKAPKVLIFAASSLQSGVPSRFGGSGSGTDFTLTISSLQPEDFATYYCQQSYSTPWTFGQGTKVEVKR , what EC50 is on record?
### Response 0.32

### Prompt Here is the next binder: Ab7 (antibody, human IgG1, lambda, V domains shown, Fully human IgG1 from XenoMouse hybridoma) VH: QVQLVESGGGVVQPGRSLRLSCAASGFTFSTYGMHWVRQAPGKGLEWVAVIWYDGSNKYYGDSVKGRFTISRDNSKNTLYLQMNSLRAEDTAVYYCARDNSHYYYGMDVWGQGTTVTVSS VL: QSVLTQPPSVSGAPGQRVTISCTGSSSNIGAGYDVNWYQQFPGTAPKLLIYVNNNRPSGVPDRFSGSTSGTSASLAITGLQAEDEADYYCQSYDTSLSASVFGGGTRLTVLG
### Response 0.18

### Prompt Input Ab6 (antibody, human IgG1, lambda, V domains shown, Fully human IgG1 from XenoMouse hybridoma) VH: QVQLVQSGAEVKKPGASVKVSCKASGYTFTSYGISWVRQAPGQGLEWMGWISAYNGYTHYAQKLQGRVTMTTDTSTSTAYMELRSLRSDDTAVYYCARDYGGNDYYGMDVWGQGTTVTVSS VL: QSVLTQPPSASGTPGQRVTISCSGSSSNIGINYVYWYQQLPGTAPKLLIYRSDQRPSGVPDRFSGSKSGTSASLALSGLRSEDEADYYCAAWDDSLSGVVFGGGTKLTVLG
### Response 0.87
